- EXPERIMENT NOTES: ACEA_ER_AUC_viability: ACEA Biosciences xCELLigence Real-Time Cell Analysis on Estrogen Receptor Agonism for Viability (AID 2283782);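 note: continuous compound exposure with impedance area under curve over 80 h; hit means loss of impedance signal meaning reduced cell growth or viability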
Records with an inconclusive call do not appear. Activity calls are given as the source filed them. Rule for the calls: active = hit-call score of the fitted dose curve at least 0.9, where 1 is the maximum; inconclusive = response in the unintended direction; inactive = score below 0.9.
Select the matching outcome among active, inactive

Examples from the recorded data:
{"columns": ["STRUCTURE SMILES", "GROUP"],
 "data": [
  ["O=C(Nc1ccccc1SSc1ccccc1NC(=O)c1ccccc1)c1ccccc1", "active"],
  ["Cc1ccc2oc(=O)ccc2c1", "inactive"],
  ["CC(=O)c1ccc2c(c1)CCCC2", "active"],
  ["CCO[Si](CCCN=C=O)(OCC)OCC", "inactive"],
  ["C1=CCCC1", "inactive"],
  ["O=[N+]([O-])c1ccc(CO)cc1", "inactive"],
  ["c1ccc2c(c1)ccc1ncccc12", "inactive"],
  ["CO[Si](OC)(OC)c1ccccc1", "inactive"],
  ["Nc1ccc(N=Nc2ccccc2)c(N)n1", "inactive"]
]}

Proceed to the following item.
**Query** // param item: CCCNC(=O)NS(=O)(=O)c1ccc(Cl)cc1 ; yields the recorded call
**Result** inactive

###

- TESTED TARGET: Paired box protein Pax-6 (Homo sapiens)
- EXPERIMENT NOTES: ATG_Pax6_CIS: Attagene CIS-FACTORIAL HepG2 Assay for human Paired Box 6 (PAX6) (AID 2282956)
- TEST CONTEXT: HepG2 CIS-FACTORIAL PAX6 reporter transcription, RNA readout; actives raise or lower the signal
Calls of active or inactive are those of the source. How the source made its calls: active means hit-call score of the fitted dose curve at least 0.9, where 1 is the maximum; inactive means score below 0.9.
Return exactly one item of active, inactive

Answered cases to consult:
{"columns": ["MOLECULE", "TESTED TARGET", "GROUP"],
 "data": [
  ["O=c1[nH]nc(-c2ccc([N+](=O)[O-])o2)o1", "Paired box protein Pax-6 (Homo sapiens)", "inactive"],
  ["C[Si](C)(CCCN)O[Si](C)(C)CCCN", "Paired box protein Pax-6 (Homo sapiens)", "inactive"],
  ["CC(=O)OC(C)C", "Paired box protein Pax-6 (Homo sapiens)", "inactive"],
  ["CC=CCO", "Paired box protein Pax-6 (Homo sapiens)", "inactive"],
  ["C=C(C)C(=O)OCC(C)C", "Paired box protein Pax-6 (Homo sapiens)", "inactive"],
  ["CCC(CO)CO", "Paired box protein Pax-6 (Homo sapiens)", "inactive"],
  ["Cc1ccc2oc(=O)ccc2c1", "Paired box protein Pax-6 (Homo sapiens)", "inactive"],
  ["O=C1CCCCCN1SSN1CCCCCC1=O", "Paired box protein Pax-6 (Homo sapiens)", "active"]
]}

**Query** Query: recorded result category for CC1=Nc2ccc3ccccc3c2C1(C)C in this test
**Result** inactive

**Query** What did the test return for Cn1c(=O)[nH]c2ncn(C)c2c1=O ?
**Result** inactive

**Query** Record lookup: outcome of this test for CC(=O)Oc1ccc(C(C)=O)cc1 ?
**Result** inactive

**Query** Identify the outcome logged in this assay for the molecule shown: CCC(C)OC(=O)c1ccc(O)cc1 (stereo unspecified)
**Result** inactive

**Query** Test call for this molecule, please: C=CC(=O)OCC(Br)CBr (stereo unspecified)
**Result** active

**Query** Record lookup: outcome of this test for O=S(=O)(O)c1ccccc1C=Cc1ccc(-c2ccc(C=Cc3ccccc3S(=O)(=O)O)cc2)cc1 ?
**Result** inactive

**Query** State the result this test recorded for CC(C)=CC1CC(C)CCO1 (stereo unspecified) .
**Result** inactive

**Query** Which outcome was assigned to Cn1c([N+](=O)[O-])cnc1COC(N)=O in this test?
**Result** inactive

**Query** What did this assay record as the result for O=C(Oc1ccccc1)c1ccc2ccccc2c1O ?
**Result** inactive

**Query** What was the test verdict on CCCCC/C=C\CCC=O ?
**Result** inactive

**Query** I would be grateful if you could indicate the recorded call for CC(C)=CCC[C@H](C)CCO .
**Result** inactive

**Query** Please state the recorded outcome for this molecule: CCCOC(=O)CCCCC(=O)OCCC
**Result** inactive

**Query** Which outcome did this test record for the molecule CCOc1ccc(N)c([N+](=O)[O-])c1 ?
**Result** inactive

**Query** Which outcome was entered for the molecule Nc1ncn([C@@H]2O[C@H](CO)[C@@H](O)[C@H]2O)c(=O)n1 in this test?
**Result** inactive

**Query** Hey, what did the test say about CCO[Si](C)(OCC)OCC ?
**Result** inactive

**Query** Each molecule tested received a call. Report the one for O=C1CC2CC1C1CCCC21 (stereo unspecified) .
**Result** inactive
